Quick list: IC50 per entry.
Tested on: GM-CSF induced STAT5 phosphorylation mediated by the JAK2/JAK2 homodimeric complex
Assay: GM-CSF Induced pSTAT5 in Human PBMC
Details: 20 min, read-out: PBMC_GMCSF_pSTAT5 IC50 (μM), human PBMC, GM-CSF 5 ng/mL for 20 minutes, pSTAT5 by MSD

>>> df
                                   molecule  experimental_result
0  CNc1cc(Nc2cccn3ccnc23)cc2c(C(=O)N[C@H]3CC[C@@H]3OC)cnn12 [I-1052]              > 50 µM
1  CNc1cc(Nc2cccn([C@H]3CC[C@](C)(OC)CC3)c2=O)nc2c(C(=O)N[C@H]3C[C@H]3F)cnn12 [I-362]              > 50 µM

Consider the molecule CNc1cc(Nc2cc(Cl)cn([C@@H]3CCCOC3)c2=O)nc2c(C(=O)N[C@@H]3C[C@@H]3F)cnn12 [I-773] . State its measured IC50. > 12.5 µM

====

Target: human TYK2 (JH2domain-pseudokinase) (Homo sapiens (Human), UniProt P29597)
Sequence (P29597 556-888): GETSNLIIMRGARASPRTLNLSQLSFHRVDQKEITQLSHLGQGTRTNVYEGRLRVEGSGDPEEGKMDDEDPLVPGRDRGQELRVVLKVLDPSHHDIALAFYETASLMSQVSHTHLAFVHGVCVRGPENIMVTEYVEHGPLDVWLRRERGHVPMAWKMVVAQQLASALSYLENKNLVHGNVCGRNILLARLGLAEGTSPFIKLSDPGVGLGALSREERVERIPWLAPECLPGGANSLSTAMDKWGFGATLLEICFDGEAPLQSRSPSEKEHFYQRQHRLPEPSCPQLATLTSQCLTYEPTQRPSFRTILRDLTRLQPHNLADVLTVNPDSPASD
Assay: TYK2 JH2 Domain Binding Assay (KINOMEscan, DiscoveRx)
Quick list: Kd per entry.

>>> print(df.to_string())
                                   compound  attribute_measured  experimental_result
0  CNc1cc(Nc2cccn3ccnc23)cc2c(C(=O)N[C@H]3CC[C@@H]3OC)cnn12 [I-1052]                  Kd             < 200 pM

# input for lookup
Provide Kd, recorded with human TYK2 (JH2domain-pseudokinase) (Homo sapiens (Human), UniProt P29597), of CNc1cc(Nc2cccn([C@H]3CC[C@@H]3OC)c2=O)nc2c(C(=O)NC3CC3)cnn12 [I-936] 200 to 1000 pM
